This section presents sequences with their documented protein stability index values.
Assay: protein stability index of a GFP-peptide fusion (yeast GPS) (PSI 1-4); higher = more stable; sorted into four equal gates, so the index is relative within each strain
Conditions: san1∆
QUANTITY: protein stability index

>>> assay_value("ADINLEESIRESLQKRE [SIR3]")
3.09
>>> assay_value("DQGNGWLYVYETPNQDA [RPN6]")
2.23
>>> assay_value("LEGTRVSLEERTKNLVS [SMC4]")
3.34
>>> assay_value("VKKPTFTFGQSTSENKI [YOR098C/NUP1]")
3.14
>>> assay_value("QVLKCKESWDPNTTKTK [YGR119C/NUP57]")
3.63
>>> assay_value("DPLLAGLGETSGDNHTQ [RPT4]")
3.5
>>> assay_value("SVAKIRFPETMDETQTR [RPO21]")
3.66
>>> assay_value("NGVRALFHSCTRIQYVD [GRR1]")
1.86
>>> assay_value("SQIIPLMKKACYVGLLT [SNU114]")
1.75
>>> assay_value("SLLERHIPRLIPKQLLD [YJL039C/NUP192]")
1.23
>>> assay_value("PSTSITLAERQQLAYDL [RPN9]")
2.8
>>> assay_value("CLKRGWGHPTRMLLNLC [BRR2]")
3.23
>>> assay_value("YKDVSDLIRSESMLHLS [IRR1]")
2.11
>>> assay_value("CPYCYKKRREYFPEGYN [SIR2]")
2.61
>>> assay_value("QRRCLHCGALNGVVKKA [RPO31]")
2.41
>>> assay_value("VLKKPNRAMEYDALLSI [RET1]")
1.69
>>> assay_value("TLVNKSTGLKNASDALK [RPS1B]")
3.4
>>> assay_value("VLSPDSNIMSDSKKIKV [GAL11]")
2.44
>>> assay_value("RVNNPNVSLIKIEGVAT [RPL33A]")
2.38
>>> assay_value("NSESDSKSDSDSEERDP [ITC1]")
3.01
>>> assay_value("DLVKPKNPKFSNAFYSV [SMC4]")
2.26

---

Assay: protein stability index of a GFP-peptide fusion (yeast GPS) (PSI 1-4); higher = more stable; sorted into four equal gates, so the index is relative within each strain
Details: doa10∆
Consider the following partition of reported protein stability index into named classes: class 0 (below 2), class 1 (2 to below 3), class 2 (3 or more)

>>> category("RGNTKIHSMNENPTPEK [SIR3]")
"class 2"
>>> category("NYLRQQCNYSSLVFNRK [PRE5]")
"class 1"
>>> category("KDPVDFVRQAAMIALSM [RPN2]")
"class 0"
>>> category("VNGRTKSNTIPVTSIPS [GAL11]")
"class 1"
>>> category("FSSLAISEINFLHESSF [CSI1]")
"class 1"
>>> category("SPFLMGHPMTKSVYETP [SEC65]")
"class 1"
>>> category("TKFSKLIGRPPLLVPGM [FAS1]")
"class 0"
>>> category("HKMGVERSSKRLAKKPS [SIR3]")
"class 2"

---

Experiment: protein stability index of a GFP-peptide fusion (yeast GPS) (PSI 1-4); higher = more stable; sorted into four equal gates, so the index is relative within each strain
Settings: pdr5∆
This section presents sequences with their documented protein stability index values.
QUANTITY: protein stability index

>>> assay_value("IQLSTVNRQSPLFFVDL [RGR1]")
1.69
>>> assay_value("NDNEDDDEEYDYNDVEV [BRR2]")
3.22
>>> assay_value("VLPNTALKTSIQHVGMI [FAS1]")
2.6
>>> assay_value("KDAQKKDIEKLTNEISD [YIL149C/MLP2]")
2.98
>>> assay_value("MLSILEIFKKGYIKNNK [POP6]")
2.84
>>> assay_value("AKTLTYPEVVTPYNIDR [RPO21]")
2.35
>>> assay_value("TDGDSILYYDVLFITPD [BRR2]")
2.5
>>> assay_value("QLIKVAVHNGGRKHVAA [RPL9A]")
2.85
>>> assay_value("RMLEEAIDHLKAELEKQ [YIL149C/MLP2]")
3.21
>>> assay_value("KRFQVLYPCYFDINRSH [SEC65]")
2.11
>>> assay_value("VFEISENNSDSNSNNNG [SWI1]")
3.03
>>> assay_value("EYSPEILQIREEIPSKS [RRP6]")
2.79
>>> assay_value("NTVDGDLLKLVHLSNGY [FAS1]")
2.52
>>> assay_value("LAMNDDDFLSKKRKAGR [SNF2]")
3.58
>>> assay_value("KADAQREKALNEEAEAR [RPL19A]")
3.45
>>> assay_value("RLQGIKLLDNIQEYQLC [COR1]")
2.24
>>> assay_value("ILNELEVFIGRVKDQDG [YJR042W/NUP85]")
3.05
>>> assay_value("PLSLTHRDKNKMDMICR [DIS3]")
3.43
>>> assay_value("IGMSLLMRTFLYTLAQE [SIR3]")
2.37
>>> assay_value("CVHMVYEYAEHDLLQII [SSN3]")
2.21
>>> assay_value("IGANIYQSPTIFKIVQS [MED6]")
2.08
